# credit: patent US8329675B2

Catalogue of Ki readings, one per entry.
Experimental target: human FAAH (Homo sapiens)
Construct: host or cells: COS-7 cells, transient transfection; 13,000 g membrane fraction solubilised in 1% Triton X-100
Test details: Human FAAH biochemical inhibition assay (AMC arachidonoyl amide fluorescence)
Condition parameters: Table 1, human FAAH (no asterisk); read-out: Activity (Ki)

Study these solved cases before continuing.
Give recorded Ki with human FAAH (Homo sapiens) for the following compound: OB(O)c1cccc(Br)c1
10 to 100 nM

Could you do the same for Cc1ccc(B(O)O)cc1C , please?
10 to 1000 nM

Could you do the same for OB(O)c1ccc2cc(O)ccc2c1 , please?
10 to 100 nM

Could you do the same for Cc1nnc(-c2ccc(B(O)O)cc2)o1 , please?
10 to 100 nM

Could you do the same for O=C(Nc1ccc(B(O)O)cc1)OCc1ccccc1 , please?
10 to 100 nM

Could you do the same for OB(O)c1ccc(-c2ccc(B(O)O)cc2)cc1 , please?
10 to 100 nM

Could you do the same for OB(O)c1ccc(-c2cccs2)cc1 , please?
10 to 100 nM

Could you do the same for CS(=O)(=O)c1cccc(B(O)O)c1 , please?
> 1000 nM

Could you do the same for CN(C)c1ccc(B(O)O)cc1 , please?
> 1000 nM

Could you do the same for O=C(Nc1ccccc1)c1ccc(B(O)O)cc1 , please?
10 to 100 nM

Further cases:
Give recorded Ki with human FAAH (Homo sapiens) for the following compound: OB(O)c1ccc2c(c1)CCO2
> 1000 nM

Could you do the same for O=C(Nc1ccccc1)c1cccc(B(O)O)c1 , please?
> 1000 nM

----------
Experimental target: human FAAH (Homo sapiens)
Construct: host or cells: COS-7 cells, transient transfection; 13,000 g membrane fraction solubilised in 1% Triton X-100
Sequence (O00519 1-579): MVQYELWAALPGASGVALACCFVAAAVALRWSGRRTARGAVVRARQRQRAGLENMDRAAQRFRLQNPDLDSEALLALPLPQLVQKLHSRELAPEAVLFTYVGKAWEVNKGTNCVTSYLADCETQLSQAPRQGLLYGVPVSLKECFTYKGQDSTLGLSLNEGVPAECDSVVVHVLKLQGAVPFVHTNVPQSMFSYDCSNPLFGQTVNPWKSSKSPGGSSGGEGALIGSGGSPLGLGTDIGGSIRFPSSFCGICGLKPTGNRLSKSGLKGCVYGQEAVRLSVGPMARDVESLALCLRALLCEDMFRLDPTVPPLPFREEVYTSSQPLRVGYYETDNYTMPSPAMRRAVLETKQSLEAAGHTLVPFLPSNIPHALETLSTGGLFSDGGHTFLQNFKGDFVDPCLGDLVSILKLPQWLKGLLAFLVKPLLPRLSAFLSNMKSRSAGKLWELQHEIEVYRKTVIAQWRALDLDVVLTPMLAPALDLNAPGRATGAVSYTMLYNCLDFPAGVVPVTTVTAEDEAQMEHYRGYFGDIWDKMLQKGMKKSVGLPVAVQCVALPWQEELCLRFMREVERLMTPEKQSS
Test details: Human FAAH biochemical inhibition assay (AMC arachidonoyl amide fluorescence)
Condition parameters: Table 2, human FAAH (no asterisk); read-out: Activity (Ki)
pKi: −log10 of the molar value.
Parameter: pKi

Entry CN(Cc1ccccc1)Cc1ccc(B(O)O)c(F)c1 has what pKi?
7.00 to 8.00

----------
Experimental target: human FAAH (Homo sapiens)
Construct: host or cells: COS-7 cells, transient transfection; 13,000 g membrane fraction solubilised in 1% Triton X-100
Test details: Human FAAH biochemical inhibition assay (AMC arachidonoyl amide fluorescence)
Condition parameters: Table 1, human FAAH (no asterisk); read-out: Activity (Ki)
pKi: −log10 of the molar value.
Catalogue of pKi readings, one per entry.

Entry OB(O)c1ccc2ccccc2c1 has what pKi?
7.00 to 8.00

Could you do the same for OB(O)c1cncc2ccccc12 , please?
< 6.00

Could you do the same for OB(O)c1c(F)c(F)cc(F)c1F , please?
< 6.00

Could you do the same for Cc1cc(B(O)O)cc(C)c1OCc1cccc(Cl)c1 , please?
> 8.00

Could you do the same for COc1ccc(Br)cc1B(O)O , please?
< 6.00

----------
Experimental target: human FAAH (Homo sapiens, UniProt O00519)
Construct: host or cells: COS-7 cells, transient transfection; 13,000 g membrane fraction solubilised in 1% Triton X-100
Test details: Human FAAH biochemical inhibition assay (AMC arachidonoyl amide fluorescence)
Condition parameters: Table 2, human FAAH (no asterisk); read-out: Activity (Ki)
Catalogue of Ki readings, one per entry.

Study these solved cases before continuing.
Entry [O-][S+](Cc1ccc(B(O)O)cc1)c1ccccc1 (centres unmarked) has what Ki?
0.01 to 1 µM

Could you do the same for OB(O)c1ccc(CBr)cc1 , please?
> 1 µM

Could you do the same for O=C(c1ccccc1)c1cc2cc(B(O)O)ccc2o1 , please?
0.01 to 0.1 µM

Could you do the same for CC(C)(C)OC(=O)Nc1cccc(Oc2ccc(B(O)O)cc2)c1 , please?
0.01 to 0.1 µM

Could you do the same for OB(O)c1ccc(OCc2ccn[nH]2)cc1F , please?
0.01 to 0.1 µM

Further cases:
Entry CC1(C)OB(c2ccc(CN(Cc3ccccc3)Cc3ccccc3)cc2)OC1(C)C has what Ki?
> 1 µM

Could you do the same for OB(O)c1ccc2sc3ccccc3c2c1 , please?
0.01 to 1 µM

Could you do the same for OB(O)c1ccc(OCCc2cccc(Cl)c2)cc1F , please?
< 0.01 µM

Could you do the same for Cc1cc(COc2ccc(B(O)O)cc2)ccc1F , please?
0.01 to 0.1 µM

Could you do the same for O=C(c1ccccc1)c1ccc(-c2ccc(B(O)O)cc2)cc1 , please?
0.01 to 0.1 µM

Could you do the same for CN(C)C(=O)C(Oc1ccc(B(O)O)cc1)c1ccccc1 (centres unmarked) , please?
0.01 to 1 µM

Could you do the same for Cc1ccc(Oc2ccc(B(O)O)cc2)cc1F , please?
< 0.01 µM

----------
Experimental target: human FAAH (Homo sapiens)
Construct: host or cells: COS-7 cells, transient transfection; 13,000 g membrane fraction solubilised in 1% Triton X-100
Test details: Human FAAH biochemical inhibition assay (AMC arachidonoyl amide fluorescence)
Condition parameters: Table 2, human FAAH (no asterisk); read-out: Activity (Ki)
Catalogue of Ki readings, one per entry.

Study these solved cases before continuing.
Entry OB(O)c1ccc(COCc2ccccc2)c(Cl)c1 has what Ki?
< 10 nM

Could you do the same for OB(O)c1ccc(OCCCc2ccccc2)cc1 , please?
< 10 nM

Further cases:
Entry Nc1ccc(Oc2ccc(B(O)O)cc2)cc1 has what Ki?
10 to 100 nM

Could you do the same for CN(C)c1ccc(/N=N/c2ccc(B(O)O)cc2)cc1 , please?
10 to 100 nM

Could you do the same for OB(O)c1ccc(Oc2ccc(Cl)c(C(F)(F)F)c2)cc1 , please?
< 10 nM

Could you do the same for CN(C)C(=O)c1cccc(Oc2ccc(B(O)O)cc2)c1 , please?
10 to 100 nM

----------
Catalogue of Ki readings, one per entry.
Experimental target: human FAAH (Homo sapiens, UniProt O00519)
Construct: host or cells: COS-7 cells, transient transfection; 13,000 g membrane fraction solubilised in 1% Triton X-100
Test details: Human FAAH biochemical inhibition assay (AMC arachidonoyl amide fluorescence)
Condition parameters: Table 2, human FAAH (no asterisk); read-out: Activity (Ki)

Entry COc1ccc(-c2ccc(B(O)O)cc2)cc1 has what Ki?
10 to 100 nM

Further cases:
Entry Cn1ccc2cc(B(O)O)ccc21 has what Ki?
> 1000 nM

Could you do the same for Cc1ccc(C)n1-c1ccc(B(O)O)cc1 , please?
> 1000 nM

Could you do the same for Cc1cccc(COc2ccc(B(O)O)cc2)c1 , please?
10 to 100 nM

----------
Experimental target: human FAAH (Homo sapiens, UniProt O00519)
Construct: host or cells: COS-7 cells, transient transfection; 13,000 g membrane fraction solubilised in 1% Triton X-100
Test details: Human FAAH biochemical inhibition assay (AMC arachidonoyl amide fluorescence)
Condition parameters: Table 1, human FAAH (no asterisk); read-out: Activity (Ki)
Protocol: The resulting solution is added into one dish of 30-40% confluent COS-7 cells in a drop-wise manner. The COS-7 cell dish is subsequently incubated for 48 hours. The cells are then harvested. Harvest procedure: Media was aspirated from the dishes and the cells rinsed with 10 mL PBS. […] Human FAAH assay; Experimental Protocol: A 0.1 mg/mL Human FAAH solution is made up in FAAH reaction buffer, and 24 ul pipetted into a 384 well plate. […] The microtiter plate in read in the envision plate reader.
pKi: −log10 of the molar value.
Catalogue of pKi readings, one per entry.

Study these solved cases before continuing.
Give recorded pKi with human FAAH (Homo sapiens, UniProt O00519) for the following compound: OB(O)c1ccc(F)c(OCC(F)(F)F)c1
6.00 to 8.00

Could you do the same for OB(O)c1ccc(O)cc1 , please?
< 6.00

Could you do the same for CCCCOc1ccc(B(O)O)cc1Cl , please?
> 8.00

Could you do the same for OB(O)c1ccc(N2CCOCC2)cc1 , please?
6.00 to 8.00

Could you do the same for O=Cc1ccc(-c2ccccc2)c(F)c1 , please?
< 6.00

Further cases:
Give recorded pKi with human FAAH (Homo sapiens, UniProt O00519) for the following compound: OB(O)c1cc2ccccc2c2ccccc12
< 6.00

Could you do the same for OB(O)c1ccccc1 , please?
< 6.00
